- EXPERIMENTAL_TARGET: Nuclear receptor ROR-alpha (Homo sapiens)
- ASSAY_NAME: activators of orphan receptor RORA, primary screen, cell-based, luminescence (AID 560);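 further: 0% = DMSO-treated RORA cells and 100% = added signal equal to DMSO minus mock-transfected cells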
- MEASUREMENT_SETUP: CHO-K1 Gal4-RORA LBD luciferase reporter, at 10 µM, stronger effect = higher value, percent increase over mock-subtracted basal signal
About 980 (1.5%) of roughly 65,000 compounds were called active. The sample holds actives, similar compounds and a random draw of the others, so the mix is not that of the screen.
METRIC: activation (%)
Field format: number, assumed %, no unit text.

// below: answered compounds
# COMPOUND, EXPERIMENTAL_TARGET, METRIC, EXPERIMENTAL_VALUE
measured = [
    ("CN(C)c1ccc(CNC23CN4CN(CN(C4)C2)C3)cc1", "Nuclear receptor ROR-alpha (Homo sapiens)", "activation", -19.1),
    ("CCc1ccc(N2CC(C(=O)NC3=NCCS3)CC2=O)cc1 (centres undefined)", "Nuclear receptor ROR-alpha (Homo sapiens)", "activation", -23.3),
    ("O=C(C1CCC1)N1CCc2cc(S(=O)(=O)NCc3cccnc3)ccc21", "Nuclear receptor ROR-alpha (Homo sapiens)", "activation", 16.4),
    ("O=C(NCc1cn2ccsc2n1)Nc1cccc(Cl)c1", "Nuclear receptor ROR-alpha (Homo sapiens)", "activation", 45.8),
]

Challenge: Which activation reading was recorded for the compound CCCCSc1nnc(-c2ccc(C)cc2)o1 ?
Response given: 23.4

Challenge: Next entry: CC(C)NS(=O)(=O)c1ccc(NC(=O)c2cccnc2)cc1
Response given: 25.4

Challenge: Next entry: COc1cccc(OCC(=O)Nc2ccccc2C(N)=O)c1
Response given: 1.9

Challenge: Next entry: C#CCN1C(=O)C(O)(CC(=O)c2cc(OC)ccc2OC)c2ccccc21 (centres undefined)
Response given: -9.4

Challenge: Next entry: O=C1CCCC2=C1C(c1cccs1)n1nc(SCc3ccccc3)nc1N2 (centres undefined)
Response given: -13.1

Challenge: Next entry: O=C(NC1=NCCS1)c1ccc(Cl)s1
Response given: 80.1

Challenge: Next entry: Cc1noc(C)c1C(=O)Nc1ccccn1
Response given: -8.4

Challenge: Next entry: O=C(CN1CCN(c2ccccn2)CC1)NCc1cccs1
Response given: 1.8

Challenge: Next entry: CCN(CC)S(=O)(=O)c1cccc(C(=O)Nc2ccccc2)c1
Response given: 2.7

Challenge: Next entry: Cc1ccc(CN2C(=O)CCC2C(=O)NCCCN2CCCCC2C)cc1 (centres undefined)
Response given: 13.7
